test: In vivo toxicity in cynomolgus monkey assessed as NOAEL after 28 days; assay type: organism-based, Macaca fascicularis; conditions: time 28 day
measurementKind: NOAEL at 672 h (mg/kg)
Answers are plain numbers, in mg/kg.

Exercise: // Input: `Cn1cc(Nc2nccc(-c3ccc4c(c3)CN(C3COC3)CC[C@H]4NC(=O)c3cn(C(C)(C)C)nn3)n2)cn1` . Output its NOAEL at 672 h only.
Key: 250

====

molecular target: Mitogen-activated protein kinase kinase kinase 13 (Homo sapiens); experiment: Binding affinity to wild-type human full length LZK (M1 to W966 residues) expressed in mammalian expression system by Kinomescan method
Sequence (O43283 whole entry, the tested form may be a part): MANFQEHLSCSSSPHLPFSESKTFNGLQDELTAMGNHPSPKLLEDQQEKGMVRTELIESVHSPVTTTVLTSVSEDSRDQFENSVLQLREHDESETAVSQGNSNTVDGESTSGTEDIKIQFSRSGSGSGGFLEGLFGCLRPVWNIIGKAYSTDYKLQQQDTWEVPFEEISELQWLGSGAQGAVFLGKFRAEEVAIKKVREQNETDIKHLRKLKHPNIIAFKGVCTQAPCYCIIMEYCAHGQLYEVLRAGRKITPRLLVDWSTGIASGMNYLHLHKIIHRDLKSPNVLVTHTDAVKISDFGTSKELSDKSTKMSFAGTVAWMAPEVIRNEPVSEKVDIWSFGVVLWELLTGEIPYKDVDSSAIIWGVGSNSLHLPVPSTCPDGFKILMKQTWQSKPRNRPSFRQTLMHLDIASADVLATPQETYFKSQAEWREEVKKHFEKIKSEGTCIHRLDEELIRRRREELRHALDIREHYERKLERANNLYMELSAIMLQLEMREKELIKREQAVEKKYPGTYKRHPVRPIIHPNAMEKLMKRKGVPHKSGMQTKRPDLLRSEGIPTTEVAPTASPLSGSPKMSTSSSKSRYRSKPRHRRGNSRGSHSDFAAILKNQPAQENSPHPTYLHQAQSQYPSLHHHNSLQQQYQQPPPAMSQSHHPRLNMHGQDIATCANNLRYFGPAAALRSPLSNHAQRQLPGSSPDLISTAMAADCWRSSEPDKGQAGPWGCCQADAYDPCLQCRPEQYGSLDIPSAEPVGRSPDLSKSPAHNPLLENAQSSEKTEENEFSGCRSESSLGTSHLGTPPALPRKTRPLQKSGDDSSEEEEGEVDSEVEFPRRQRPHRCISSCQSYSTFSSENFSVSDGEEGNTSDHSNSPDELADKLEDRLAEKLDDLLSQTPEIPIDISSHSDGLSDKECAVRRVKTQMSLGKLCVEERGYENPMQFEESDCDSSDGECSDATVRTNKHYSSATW
pKd: −log10 of the molar value.
measurementKind: pKd

Exercise: // Input: `Cn1cc(Nc2nccc(-c3ccc4c(c3)CN(C3COC3)CC[C@H]4NC(=O)c3cn(C(C)(C)C)nn3)n2)cn1` . Output its pKd only.
Key: < 5.52
